Origin of values: patent US20040018971A1

target: HLA-A*1101 (human); experiment: inhibition of 125I probe peptide binding to purified HLA
pIC50: −log10 of the molar value. Where no end group is shown, it is not given here. [ ]: non-standard residue; d: D form. Abu = CC[C@H](N)C(=O)O
Recorded pIC50 by entry

| binder | pIC50 |
| --- | --- |
| [Abu]VN[Abu]SQFLR (synthetic analog peptide; also called BVNBSQFLR) [Her2/neu.528.B1B4] | 7.10 |
| IVWLGLRSLK (synthetic analog peptide) [Her2/neu.450.V2K10] | 6.89 |
| TV[Abu]AGG[Abu]AR (synthetic analog peptide; also called TVBAGGBAR) [Her2/neu.218.B3B7] | 6.95 |
